target: G6PD (Homo sapiens); experiment: 6-pg levels in HepG2 cells (cellular target engagement); format: cell-based; set-up: endogenous in cells; settings: HepG2 cells; read-out: IC50, decrease in 6-pg levels
Sequence (P11413 whole entry): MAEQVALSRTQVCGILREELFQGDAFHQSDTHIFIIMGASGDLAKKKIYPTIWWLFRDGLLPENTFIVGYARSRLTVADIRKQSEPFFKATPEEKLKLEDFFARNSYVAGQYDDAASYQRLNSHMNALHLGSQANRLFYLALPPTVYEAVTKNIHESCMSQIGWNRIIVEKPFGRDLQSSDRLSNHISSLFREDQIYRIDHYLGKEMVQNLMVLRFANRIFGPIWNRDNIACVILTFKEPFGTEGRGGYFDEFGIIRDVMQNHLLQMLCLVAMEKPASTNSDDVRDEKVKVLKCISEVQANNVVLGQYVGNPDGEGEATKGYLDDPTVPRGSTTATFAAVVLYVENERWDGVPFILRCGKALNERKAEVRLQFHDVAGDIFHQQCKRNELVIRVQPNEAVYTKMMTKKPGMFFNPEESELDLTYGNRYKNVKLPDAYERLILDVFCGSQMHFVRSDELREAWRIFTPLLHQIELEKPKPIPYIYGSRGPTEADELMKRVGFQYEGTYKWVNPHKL

{"molSmiles": "N#Cc1cc(Nc2ncc3c(n2)CCCCC3=O)cs1", "testSystem": "G6PD (Homo sapiens)", "IC50": "~13 µM"}

###

biological target: G6PD (Homo sapiens); assay: G6PD enzymatic activity by diaphorase-coupled assay
Sequence (P11413 28-515): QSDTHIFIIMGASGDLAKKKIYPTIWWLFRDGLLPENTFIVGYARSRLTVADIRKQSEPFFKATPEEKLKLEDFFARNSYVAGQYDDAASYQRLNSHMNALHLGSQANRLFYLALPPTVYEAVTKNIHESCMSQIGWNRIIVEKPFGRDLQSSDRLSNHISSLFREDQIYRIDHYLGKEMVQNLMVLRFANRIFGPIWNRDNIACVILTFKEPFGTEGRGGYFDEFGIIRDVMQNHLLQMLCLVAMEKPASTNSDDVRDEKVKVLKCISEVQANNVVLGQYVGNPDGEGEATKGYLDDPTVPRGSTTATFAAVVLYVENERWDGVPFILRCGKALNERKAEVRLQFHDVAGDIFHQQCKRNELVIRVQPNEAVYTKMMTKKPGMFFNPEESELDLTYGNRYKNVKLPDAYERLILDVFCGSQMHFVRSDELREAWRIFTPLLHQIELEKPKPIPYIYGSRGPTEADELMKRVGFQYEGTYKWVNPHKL
pIC50: −log10 of the molar value.
readoutKind: pIC50

{"molecule": "CCOCCOc1cc(C#N)cc(Nc2ncc3c(n2)CCCCC3=O)c1 [Compound 0090]", "result": "3.00 to 6.00"}
{"molecule": "N#Cc1cc(Nc2ncc3c(n2)CCCC/C3=N/O)cs1 [Compound 0054]", "result": "< 3.00"}
{"molecule": "N#Cc1cc(Nc2ncc3c(n2)CCCCC3=O)cc(OCC2CCCC2)c1 [Compound 0099]", "result": "3.00 to 6.00"}
{"molecule": "N#Cc1cc(Nc2ncc3c(n2)CCCCC3=O)cc(OCC2CC2)c1 [Compound 0097]", "result": "> 6.00"}
{"molecule": "N#C/C=C1\\CCCCc2nc(Nc3csc(C#N)c3)ncc21 [Compound 0055]", "result": "3.00 to 6.00"}
{"molecule": "O=C1CCCc2nc(NCc3ccncc3)ncc21 [KG-0163-0]", "result": "3.00 to 6.00"}
{"molecule": "N#Cc1cc(Nc2ncc3c(n2)CCCCC3=O)cn1Cc1ccccc1 [Compound 0058]", "result": "3.00 to 6.00"}
{"molecule": "O=C1CCCCc2nc(Nc3ccc(F)c(Cl)c3)ncc21 [Compound 0017]", "result": "> 6.00"}
{"molecule": "N#Cc1cc(CS(=O)(=O)C(F)(F)F)cc(Nc2ncc3c(n2)CCCCC3=O)c1 [Compound 0163]", "result": "3.00 to 6.00"}

###

target: G6PD (Homo sapiens); assay: G6PD enzymatic activity by diaphorase-coupled assay; conditions: Normalized in vitro IC50, Table 1; diaphorase-coupled biochemical assay, normalization to an intraplate control
pIC50: −log10 of the molar value.
pIC50 values for the molecules below.
readoutKind: pIC50

{"molecule": "O=C1CCCc2nc(Nc3cccc(Br)c3)ncc21 [KG-0167]", "readoutKind": "pIC50", "result": "3.00 to 6.00"}
{"molecule": "O=C1CCCc2nc(Nc3ccc4cn[nH]c4c3)ncc21", "readoutKind": "pIC50", "result": "3.00 to 6.00"}
{"molecule": "O=C1CCCc2nc(Nc3cccc(-c4nnn[nH]4)c3)ncc21", "readoutKind": "pIC50", "result": "3.00 to 6.00"}
{"molecule": "O=C1CCCc2nc(Nc3cc[nH]n3)ncc21", "readoutKind": "pIC50", "result": "< 3.00"}
{"molecule": "O=C(O)c1cccc(Nc2ncc3c(n2)CCCC3=O)c1", "readoutKind": "pIC50", "result": "< 3.00"}
{"molecule": "O=C1CCCc2nc(Nc3cccc(C(F)(F)F)c3)ncc21", "readoutKind": "pIC50", "result": "3.00 to 6.00"}
{"molecule": "COc1cc(C#N)cc(Nc2ncc3c(n2)CCCC3=O)c1", "readoutKind": "pIC50", "result": "> 6.00"}
{"molecule": "O=C1CCCc2nc(Nc3ccccc3)ncc21", "readoutKind": "pIC50", "result": "3.00 to 6.00"}
{"molecule": "O=C1CCCc2nc(Nc3ccc4occc4c3)ncc21", "readoutKind": "pIC50", "result": "3.00 to 6.00"}
{"molecule": "O=C1CCCc2nc(NCc3ccccc3)ncc21", "readoutKind": "pIC50", "result": "3.00 to 6.00"}
{"molecule": "O=C1CCCc2nc(Nc3cccc(Cl)c3)ncc21", "readoutKind": "pIC50", "result": "> 6.00"}
{"molecule": "O=C1CCCc2nc(Nc3cccc(C4(O)COC4)c3)ncc21", "readoutKind": "pIC50", "result": "3.00 to 6.00"}
{"molecule": "N#Cc1cccc(Nc2ncc3c(n2)CCCCC3=O)c1", "readoutKind": "pIC50", "result": "> 6.00"}
{"molecule": "Cc1cccc(Nc2ncc3c(n2)CCC3=O)c1", "readoutKind": "pIC50", "result": "3.00 to 6.00"}
{"molecule": "CC#Cc1cccc(Nc2ncc3c(n2)CCCC3=O)c1", "readoutKind": "pIC50", "result": "3.00 to 6.00"}
{"molecule": "COc1cc(Cl)cc(Nc2ncc3c(n2)CCCC3=O)c1", "readoutKind": "pIC50", "result": "> 6.00"}
{"molecule": "N#Cc1cccc(Nc2ncc3c(n2)CCC(O)C3=O)c1 (stereo not shown)", "readoutKind": "pIC50", "result": "> 6.00"}
{"molecule": "Cc1cccc(Nc2ncc3c(n2)CCCC3=O)c1", "readoutKind": "pIC50", "result": "3.00 to 6.00"}
{"molecule": "COc1cccc(Nc2ncc3c(n2)CCCC3=O)c1", "readoutKind": "pIC50", "result": "3.00 to 6.00"}
{"molecule": "O=C1CCCc2nc(Nc3cccc(OCc4ccccc4)c3)ncc21", "readoutKind": "pIC50", "result": "3.00 to 6.00"}
{"molecule": "NC(=O)c1cccc(Nc2ncc3c(n2)CCCC3=O)c1", "readoutKind": "pIC50", "result": "3.00 to 6.00"}
{"molecule": "Cc1cccc(Nc2ncc3c(n2)CCCC3=O)c1C", "readoutKind": "pIC50", "result": "< 3.00"}
